Target protein (sequence): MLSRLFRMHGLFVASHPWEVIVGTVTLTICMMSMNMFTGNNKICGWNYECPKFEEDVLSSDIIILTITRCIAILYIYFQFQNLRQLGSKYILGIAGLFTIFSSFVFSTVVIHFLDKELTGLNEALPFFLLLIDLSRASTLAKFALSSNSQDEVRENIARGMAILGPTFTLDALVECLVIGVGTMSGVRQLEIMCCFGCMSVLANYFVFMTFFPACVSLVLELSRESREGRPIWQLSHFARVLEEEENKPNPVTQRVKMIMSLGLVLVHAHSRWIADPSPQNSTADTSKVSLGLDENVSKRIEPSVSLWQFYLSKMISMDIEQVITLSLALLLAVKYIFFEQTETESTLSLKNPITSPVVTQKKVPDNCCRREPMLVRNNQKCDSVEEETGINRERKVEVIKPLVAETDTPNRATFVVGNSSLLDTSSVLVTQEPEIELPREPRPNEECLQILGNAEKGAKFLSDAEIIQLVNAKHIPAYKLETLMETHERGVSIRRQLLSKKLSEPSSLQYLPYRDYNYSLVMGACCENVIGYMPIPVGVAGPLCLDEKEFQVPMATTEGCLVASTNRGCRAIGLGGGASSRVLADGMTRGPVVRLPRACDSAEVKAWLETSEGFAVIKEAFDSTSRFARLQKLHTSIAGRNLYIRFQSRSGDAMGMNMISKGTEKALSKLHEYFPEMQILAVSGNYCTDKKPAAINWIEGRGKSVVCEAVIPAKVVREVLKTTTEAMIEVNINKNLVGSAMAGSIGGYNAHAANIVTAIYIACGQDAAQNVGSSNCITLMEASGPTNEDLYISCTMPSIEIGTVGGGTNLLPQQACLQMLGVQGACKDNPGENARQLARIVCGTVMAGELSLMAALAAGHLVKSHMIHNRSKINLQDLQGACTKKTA
pIC50: −log10 of the molar value.
parameter measured: pIC50

[1] CC[C@H](C)C(=O)O[C@H]1CCC=C2C=C[C@H](C)[C@H](CC[C@@H]3C[C@@H](O)CC(=O)O3)[C@H]21
[2] CCC(C)(C)C(=O)O[C@@H]1C2C(=C[C@H](C)[C@H]1CO)C=C[C@H](C)[C@@H]2CC[C@@H]1C[C@@H](O)CC(=O)O1 (some centres not stated)
Query: Please indicate which item has the smaller measured pIC50: 1 versus 2 Field: selected label. Fill in the label of the entry you choose.
Result: 1
(1: 7.55, 2: 7.97)
